- System: MCF7
- ASSAY METHOD TEXT: Cytotoxicity against human MCF7 cells assessed as cell growth inhibition at 5 uM incubated for 48 hrs by CCK8 assay relative to control
- Type: functional
The label depends only on inhibition at 5 µM: yes if it is at least 20%, no if it is smaller.

[[record]]
smiles_entry = "COc1cc2c(cc1OC)CN(C(=O)c1ccc(-c3ccc(NC(=O)c4c[nH]c5ccccc45)cc3)o1)CC2"
category_label = "no"

[[record]]
smiles_entry = "CCC(=O)Nc1ccc(-c2ccc(C(=O)N3CCc4cc(OC)c(OC)cc4C3)o2)cc1"
category_label = "no"

[[record]]
smiles_entry = "COc1cc2c(cc1OC)CN(C(=O)c1ccc(-c3ccc(NC(=O)/C=C/c4ccccc4)cc3)o1)CC2"
category_label = "no"

[[record]]
smiles_entry = "COc1ccc(-c2ccc(C(=O)N3CCc4cc(OC)c(OC)cc4C3)o2)cc1"
category_label = "no"

[[record]]
smiles_entry = "COc1cc2c(cc1OC)CN(C(=O)c1ccc(-c3ccc(NC(=O)c4cc5cc(Cl)ccc5[nH]4)cc3)o1)CC2"
category_label = "no"

[[record]]
smiles_entry = "COc1cc2c(cc1OC)CN(C(=O)c1ccc(-c3ccc(NC(=O)C(C)(C)C)cc3)o1)CC2"
category_label = "no"

[[record]]
smiles_entry = "COc1cc2c(cc1OC)CN(C(=O)c1ccc(-c3ccc(NC(=O)c4cc5ccccc5s4)cc3)o1)CC2"
category_label = "yes"

[[record]]
smiles_entry = "COc1cc2c(cc1OC)CN(C(=O)c1ccc(-c3ccc(NC(=O)c4cc5cc(F)ccc5[nH]4)cc3)o1)CC2"
category_label = "no"

[[record]]
smiles_entry = "COc1ccc2cc(C(=O)Nc3ccc(-c4ccc(C(=O)N5CCc6cc(OC)c(OC)cc6C5)o4)cc3)[nH]c2c1"
category_label = "no"

[[record]]
smiles_entry = "COc1cc2c(cc1OC)CN(CCc1ccc(NC(=O)c3cc(OC)c(OC)cc3NC(=O)c3cnc4ccccc4c3)cc1)CC2"
category_label = "yes"

[[record]]
smiles_entry = "COc1cc2c(cc1OC)CN(C(=O)c1ccc(-c3ccc(NC(=O)c4cc5cc(Br)ccc5[nH]4)cc3)o1)CC2"
category_label = "yes"


// data source = ChEMBL document CHEMBL5325411
